All values here come from ChEMBL document CHEMBL1144029.

# Test target: Cytochrome P450 2C9 (Homo sapiens)
# Method description: Inhibition of human recombinant CYP2C9 expressed in Saccharomyces cerevisiae by fluorescence assay
Outcome measure: pIC50
# log scale: pIC50 equals minus log10 of the concentration in mol/L

Brc1ccc(-n2c(SCc3ccccc3)nnc2-c2ccncc2)cc1 :: 5.37

**Q:** Fill in: pIC50 of Clc1ccc(OC(Cn2ccnc2)c2ccc(Cl)cc2Cl)c(Cl)c1 (centres undefined) is ___
**A:** 5.00

**Q:** // returns reported pIC50 for input Cc1cnc(CNc2cc(-c3ccccc3)nc(-c3cccnc3)n2)nc1
**A:** 4.68

**Q:** // returns reported pIC50 for input COC(=O)[C@H](Cc1cnc[nH]1)NCc1ccccc1
**A:** 4.70

**Q:** Using the record for Clc1ccc(Cn2cc(-c3ccncc3)cn2)c(Cl)c1 , report its pIC50.
**A:** 6.30

**Q:** Requested field: pIC50. Item: COc1ccc(-c2cc(CNS(=O)(=O)c3ccccc3)on2)cc1
**A:** 4.41

**Q:** What value of pIC50 has been reported for the following molecule? Clc1ccc(C2(Cn3cncn3)CC(Br)CO2)c(Cl)c1 (centres undefined)
**A:** 5.09

**Q:** Quick check: pIC50 of Cc1cnc(CNc2cc(-c3ccccc3)nc(-c3ccncc3)n2)nc1 ?
**A:** 5.32

**Q:** // pIC50 lookup, key: CCOC(=O)C(Cc1ccc(Cl)cc1Cl)c1ccno1 (centres undefined)
**A:** 4.96

**Q:** Requested field: pIC50. Item: CS(=O)(=O)c1ccc(Cn2cc(-c3ccncc3)cn2)cc1
**A:** 5.89

====

# Test target: Cytochrome P450 2C9 (Homo sapiens, UniProt P11712)
# Sequence (P11712 whole entry): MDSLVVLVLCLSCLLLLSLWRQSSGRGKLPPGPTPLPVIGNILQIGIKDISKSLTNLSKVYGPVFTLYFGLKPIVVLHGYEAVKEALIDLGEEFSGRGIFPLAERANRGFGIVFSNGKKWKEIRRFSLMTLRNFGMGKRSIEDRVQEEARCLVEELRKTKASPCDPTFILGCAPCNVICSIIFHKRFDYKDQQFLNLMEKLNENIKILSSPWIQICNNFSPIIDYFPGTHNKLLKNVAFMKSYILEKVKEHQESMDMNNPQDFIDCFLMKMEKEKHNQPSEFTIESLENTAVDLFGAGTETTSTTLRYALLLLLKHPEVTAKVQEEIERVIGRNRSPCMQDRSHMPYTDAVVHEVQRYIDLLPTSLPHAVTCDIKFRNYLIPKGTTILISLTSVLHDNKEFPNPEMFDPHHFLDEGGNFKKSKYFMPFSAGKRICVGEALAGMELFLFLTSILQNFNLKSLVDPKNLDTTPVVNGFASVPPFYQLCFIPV
# Method description: Binding affinity to purified human recombinant CYP2C9 expressed in Escherichia coli assessed as spectral dissociation constant
Outcome measure: Kd
Number first, unit second.

**Q:** Value wanted: Kd (Cytochrome P450 2C9 (Homo sapiens, UniProt P11712)) of entry Clc1ccc(Cn2cc(-c3ccncc3)cn2)c(Cl)c1
**A:** 3.6 µM

====

# Test target: Cytochrome P450 3A4 (Homo sapiens)
# Sequence (P08684 whole entry): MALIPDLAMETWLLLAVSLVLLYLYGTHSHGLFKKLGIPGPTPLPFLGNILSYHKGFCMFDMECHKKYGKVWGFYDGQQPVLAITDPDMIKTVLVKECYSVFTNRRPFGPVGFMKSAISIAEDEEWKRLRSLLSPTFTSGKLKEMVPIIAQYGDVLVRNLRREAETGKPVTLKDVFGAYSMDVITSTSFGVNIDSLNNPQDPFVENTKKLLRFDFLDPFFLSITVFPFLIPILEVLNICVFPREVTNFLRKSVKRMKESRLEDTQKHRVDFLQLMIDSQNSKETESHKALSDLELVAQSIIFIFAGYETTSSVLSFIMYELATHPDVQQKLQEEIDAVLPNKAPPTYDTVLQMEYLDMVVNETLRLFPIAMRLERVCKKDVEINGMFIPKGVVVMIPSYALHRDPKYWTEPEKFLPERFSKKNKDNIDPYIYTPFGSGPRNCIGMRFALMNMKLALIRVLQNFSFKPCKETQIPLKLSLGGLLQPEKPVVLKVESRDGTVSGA
# Method description: Inhibition of human recombinant CYP3A4 expressed in Saccharomyces cerevisiae by fluorescence assay
Outcome measure: log10 IC50 (log10 of the value in µM)
Base-10 log of IC50, unit µM.

The examples below pair each entry with its known result.
CS(=O)(=O)OCC1COC(Cn2cncn2)(c2ccc(Cl)cc2Cl)O1 (stereo not given) :: 0.89
COc1ccc(-c2cc(CNS(=O)(=O)c3ccccc3)on2)cc1 :: 1.52
CCC1COC(Cn2cncn2)(c2ccc(Cl)cc2Cl)O1 (stereo not given) [ETACONAZOLE] :: -0.68
O[C@](Cn1cccn1)(c1ccc(F)cc1F)n1cncn1 :: 1.64
Cc1cnc(CNc2cc(-c3ccccc3)nc(-c3ccncc3)n2)nc1 :: -1.15

**Q:** Notebook entry, Cytochrome P450 3A4 (Homo sapiens) assay: log10 IC50 of COC(=O)[C@H](Cc1cnc[nH]1)NCc1ccccc1 = ?
**A:** 0.18

**Q:** What log10 IC50 appears in the records for this compound with Cytochrome P450 3A4 (Homo sapiens)? Clc1ccc(C2(Cn3cncn3)CC(Br)CO2)c(Cl)c1 (stereo not given) [BROMUCONAZOLE]
**A:** -0.89

**Q:** Observed log10 IC50 on Cytochrome P450 3A4 (Homo sapiens) for Clc1ccc(Cn2cc(-c3ccncc3)cn2)c(Cl)c1 , please.
**A:** -0.64

**Q:** What log10 IC50 appears in the records for this compound with Cytochrome P450 3A4 (Homo sapiens)? Cc1cnc(CNc2cc(-c3ccccc3)nc(-c3cccnc3)n2)nc1
**A:** 0.98

**Q:** Item: CCOC(=O)C(Cc1ccc(Cl)cc1Cl)c1ccno1 (stereo not given) Test system: Cytochrome P450 3A4 (Homo sapiens) Read-out: log10 IC50 Value: ?
**A:** 1.08

**Q:** Tell me reported log10 IC50 for Brc1ccc(-n2c(SCc3ccccc3)nnc2-c2ccncc2)cc1 , tested with Cytochrome P450 3A4 (Homo sapiens).
**A:** 0.11

**Q:** Item CS(=O)(=O)Cc1cc(N2CCCC2)nc(-c2ccncc2)n1 with Cytochrome P450 3A4 (Homo sapiens) - log10 IC50?
**A:** 0.11

**Q:** Find log10 IC50 (Cytochrome P450 3A4 (Homo sapiens)) for the entry Cc1cc(C(C)(C)NC(=O)C(Br)C(C)(C)C)cc(C)n1 (stereo not given)
**A:** 1.11

**Q:** # query: log10 IC50 | item CCn1c(SCc2ccc(OC)cc2)nnc1-c1ccncc1 | system: Cytochrome P450 3A4 (Homo sapiens)
**A:** 1.45

**Q:** Please state recorded log10 IC50 (tested on Cytochrome P450 3A4 (Homo sapiens)) of CCOc1ccc(NC(=O)c2ccc(-n3cnnn3)cc2)cc1
**A:** 1.53

**Q:** So what log10 IC50 did CS(=O)(=O)c1ccc(Cn2cc(-c3ccncc3)cn2)cc1 get with Cytochrome P450 3A4 (Homo sapiens)?
**A:** 1.41

**Q:** Lookup: log10 IC50 / Cytochrome P450 3A4 (Homo sapiens) / Clc1ccc(OC(Cn2ccnc2)c2ccc(Cl)cc2Cl)c(Cl)c1 (stereo not given)
**A:** -1.22
